- ASSAY_PROCEDURE: Chemical stability at pH 4.5 and pH 7.4 in PBS
- Format: physicochemical
- CONDITION_NOTES: PBS pH 7.4, 37° C., 5 μM, up to 240 min

# COMPOUND, Chemical Stability, pH 7.4
data = [
    ("C[C@@H]1CC2[C@@H]3CCC4=CC(=O)C=C[C@]4(C)[C@@]3(F)[C@@H](O)C[C@]2(C)[C@@]1(O)C(=O)COC(=O)c1cccc(F)c1NC(=O)[C@@H](N)Cc1ccccc1.Cl (stereo partly shown)", "Yes"),
    ("CC(C)[C@H](N)C(=O)Nc1cscc1CC(=O)OCC(=O)[C@@]1(O)[C@H](C)C[C@H]2[C@@H]3CCC4=CC(=O)C=C[C@]4(C)[C@@]3(F)[C@@H](O)C[C@@]21C.Cl", "Yes"),
    ("COc1cccc(NC(=O)[C@@H](N)C(C)C)c1C(=O)OCC(=O)[C@@]1(O)[C@H](C)CC2[C@@H]3CCC4=CC(=O)C=C[C@]4(C)[C@@]3(F)[C@@H](O)C[C@@]21C.Cl (stereo partly shown)", "Yes"),
    ("CC(C)[C@H](N)C(=O)Nc1ccccc1C1(C(=O)OCC(=O)[C@@]2(O)[C@H](C)C[C@H]3[C@@H]4CCC5=CC(=O)C=C[C@]5(C)[C@@]4(F)[C@@H](O)C[C@@]32C)CC1.Cl", "Yes"),
]

###

- ASSAY_PROCEDURE: Rat plasma stability
- Type: in vitro ADME
- CONDITION_NOTES: rat, plasma
VALUE_KIND: half-life at 5 μM

Below, each entry is followed by its recorded half-life at 5 μM result.
# COMPOUND, half-life at 5 μM
data = [
    ("COc1cc(NC(=O)[C@@H](N)C(C)C)c(C(=O)OCC(=O)[C@@]2(O)[C@H](C)CC3[C@@H]4CCC5=CC(=O)C=C[C@]5(C)[C@@]4(F)[C@@H](O)C[C@@]32C)c(OC)c1 (some centres unmarked)", "> 4 h"),
    ("CC(NNC(=O)C1CCCN1)C(C)C(=O)OCC(=O)[C@@]1(O)[C@H](C)C[C@H]2[C@@H]3CCC4=CC(=O)C=C[C@]4(C)[C@@]3(F)[C@@H](O)C[C@@]21C (some centres unmarked)", "2.45 h"),
    ("CC(C)[C@H](N)C(=O)NCCc1cscc1C(=O)OCC(=O)[C@@]1(O)[C@H](C)C[C@H]2[C@@H]3CCC4=CC(=O)C=C[C@]4(C)[C@@]3(F)[C@@H](O)C[C@@]21C", "> 4 h"),
    ("CC(C)[C@H](N)C(=O)Nc1ccc(C(=O)OCC(=O)[C@@]2(O)[C@H](C)C[C@H]3[C@@H]4CCC5=CC(=O)C=C[C@]5(C)[C@@]4(F)[C@@H](O)C[C@@]32C)cc1F", "> 4 h"),
]

Consider now this further compound.
Query string: Tell me the measured half-life at 5 μM of COc1cc(NC(=O)[C@@H](N)C(C)C)c(C(=O)OCC(=O)[C@@]2(O)[C@H](C)CC3[C@@H]4CCC5=CC(=O)C=C[C@]5(C)[C@@]4(F)[C@@H](O)C[C@@]32C)c(OC(C)C)c1 (some centres unmarked) , please.
Result string: > 4 h

###

- ASSAY_PROCEDURE: Rat plasma stability
- Assay type: in vitro ADME
- CONDITION_NOTES: rat, plasma
VALUE_KIND: half-life at 5 μM

Below, each entry is followed by its recorded half-life at 5 μM result.
# COMPOUND, half-life at 5 μM
records = [
    ("CC(C)C(N)C(=O)N1CCCC1C(=O)NCC1(CC(=O)OCC(=O)[C@@]2(O)[C@H](C)C[C@H]3[C@@H]4CCC5=CC(=O)C=C[C@]5(C)[C@@]4(F)[C@@H](O)C[C@@]32C)CC1 (some centres unmarked)", "> 4 h"),
    ("COc1cc(Br)c(C(=O)OCC(=O)[C@@]2(O)[C@H](C)CC3[C@@H]4CCC5=CC(=O)C=C[C@]5(C)[C@@]4(F)[C@@H](O)C[C@@]32C)c(NC(=O)[C@@H](N)C(C)C)c1 (some centres unmarked)", "> 4 h"),
]

Query string: Tell me the measured half-life at 5 μM of COc1cc(N(C)C)cc(NC(=O)[C@H](Cc2ccccc2)N(C)C)c1C(=O)OCC(=O)[C@@]1(O)[C@H](C)CC2[C@@H]3CCC4=CC(=O)C=C[C@]4(C)[C@@]3(F)[C@@H](O)C[C@@]21C (some centres unmarked) , please.
Result string: > 4 h

Query string: Tell me the measured half-life at 5 μM of CC(NC(=O)[C@@H](N)Cc1ccccc1)c1cscc1C(=O)OCC(=O)[C@@]1(O)[C@H](C)C[C@H]2[C@@H]3CCC4=CC(=O)C=C[C@]4(C)[C@@]3(F)[C@@H](O)C[C@@]21C (some centres unmarked) , please.
Result string: > 4 h

Query string: Tell me the measured half-life at 5 μM of COc1cc(NC(=O)[C@@H](N)Cc2ccccc2)c(C(=O)OCC(=O)[C@@]2(O)[C@H](C)CC3[C@@H]4CCC5=CC(=O)C=C[C@]5(C)[C@@]4(F)[C@@H](O)C[C@@]32C)c(OC)c1 (some centres unmarked) , please.
Result string: > 4 h

###

- ASSAY_PROCEDURE: Permeability study using Caco-2 cell monolayers
- CONDITION_NOTES: human, Caco-2, pH 7.4
Here the recorded efflux ratio at 2 h is given for each entry.
A bare number is all that is needed in reply.

# COMPOUND, efflux ratio at 2 h
records = [
    ("CC(C)[C@H](N)C(=O)Nc1ccccc1C1(C(=O)OCC(=O)[C@@]2(O)[C@H](C)C[C@H]3[C@@H]4CCC5=CC(=O)C=C[C@]5(C)[C@@]4(F)[C@@H](O)C[C@@]32C)CC1.Cl [Compound 25]", 170),
]

Query string: Tell me the measured efflux ratio at 2 h of COc1cccc(NC(=O)[C@@H](N)C(C)C)c1C(=O)OCC(=O)[C@@]1(O)[C@H](C)CC2[C@@H]3CCC4=CC(=O)C=C[C@]4(C)[C@@]3(F)[C@@H](O)C[C@@]21C.Cl (some centres unmarked) [Compound 9] , please.
Result string: 279

###

Here the recorded half-life at 5 μM is given for each entry.
- ASSAY_PROCEDURE: Rat plasma stability
- Assay type: in vitro ADME
- CONDITION_NOTES: rat, plasma; read-out: Rat Plasma Stability t½

Below, each entry is followed by its recorded half-life at 5 μM result.
# STRUCTURE_STRING, half-life at 5 μM
records = [
    ("CC(C)[C@H](N)C(=O)Nc1ccccc1C1(C(=O)OCC(=O)[C@@]2(O)[C@H](C)C[C@H]3[C@@H]4CCC5=CC(=O)C=C[C@]5(C)[C@@]4(F)[C@@H](O)C[C@@]32C)CC1.Cl", "> 4 h"),
    ("C[C@@H]1C[C@H]2[C@@H]3CCC4=CC(=O)C=C[C@]4(C)[C@@]3(F)[C@@H](O)C[C@]2(C)[C@@]1(O)C(=O)COC(=O)NCc1ccccc1NC(=O)[C@@H](N)Cc1ccccc1.Cl", "> 4 h"),
]

Consider now this further compound.
Query string: Tell me the measured half-life at 5 μM of CC(C)[C@H](N)C(=O)Nc1cscc1CC(=O)OCC(=O)[C@@]1(O)[C@H](C)C[C@H]2[C@@H]3CCC4=CC(=O)C=C[C@]4(C)[C@@]3(F)[C@@H](O)C[C@@]21C.Cl , please.
Result string: > 4 h

###

- TARGET_OR_TEST_SYSTEM: DPP4 (Homo sapiens)
- Sequence (P27487 whole entry, species assumed): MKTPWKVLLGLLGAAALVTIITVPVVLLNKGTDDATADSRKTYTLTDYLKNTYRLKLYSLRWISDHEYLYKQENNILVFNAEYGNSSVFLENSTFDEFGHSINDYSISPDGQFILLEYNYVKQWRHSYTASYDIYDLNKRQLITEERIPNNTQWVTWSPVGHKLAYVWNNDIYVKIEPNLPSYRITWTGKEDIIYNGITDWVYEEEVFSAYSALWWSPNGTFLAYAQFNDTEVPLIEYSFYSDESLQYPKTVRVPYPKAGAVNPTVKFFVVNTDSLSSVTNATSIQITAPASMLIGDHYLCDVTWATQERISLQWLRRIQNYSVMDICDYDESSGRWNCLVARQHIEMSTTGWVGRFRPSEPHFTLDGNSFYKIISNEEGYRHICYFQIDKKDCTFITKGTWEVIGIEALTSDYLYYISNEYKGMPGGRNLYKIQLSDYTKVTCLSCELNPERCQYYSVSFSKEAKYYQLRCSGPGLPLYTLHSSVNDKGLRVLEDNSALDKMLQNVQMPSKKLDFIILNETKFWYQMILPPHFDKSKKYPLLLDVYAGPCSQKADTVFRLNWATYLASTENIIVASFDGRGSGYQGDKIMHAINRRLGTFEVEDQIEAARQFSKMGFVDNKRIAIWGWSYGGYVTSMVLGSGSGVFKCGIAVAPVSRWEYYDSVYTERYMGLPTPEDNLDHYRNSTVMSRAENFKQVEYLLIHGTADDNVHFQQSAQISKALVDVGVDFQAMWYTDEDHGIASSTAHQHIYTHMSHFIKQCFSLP
- ASSAY_PROCEDURE: in vitro
- CONDITION_NOTES: recombinant enzyme
VALUE_KIND: half-life at 10 μM (h)
Just the number in h, nothing appended.

Below, each entry is followed by its recorded half-life at 10 μM result.
# COMPOUND, READING_UNIT, half-life at 10 μM
data = [
    ("CC(C)[C@H](NC(=O)[C@@H]1CCCN1C(=O)CN)C(=O)Nc1ccc(C(=O)OCC(=O)[C@@]2(O)[C@H](C)C[C@H]3[C@@H]4CCC5=CC(=O)C=C[C@]5(C)[C@@]4(F)[C@@H](O)C[C@@]32C)cc1 [Compound 3]", "h", 2.53),
    ("CNC(C(=O)N1CCCC1C(=O)NCC(C)(C)C(C)C(=O)OCC(=O)[C@@]1(O)[C@H](C)C[C@H]2[C@@H]3CCC4=CC(=O)C=C[C@]4(C)[C@@]3(F)[C@@H](O)C[C@@]21C)C(C)C (stereo partly drawn) [Compound 32]", "h", 3.57),
]

Consider now this further compound.
Query string: Tell me the measured half-life at 10 μM of CC(C)C(N)C(=O)N1CCCC1C(=O)NCC(C)(C)C(C)C(=O)OCC(=O)[C@@]1(O)[C@H](C)C[C@H]2[C@@H]3CCC4=CC(=O)C=C[C@]4(C)[C@@]3(F)[C@@H](O)C[C@@]21C (stereo partly drawn) [Compound 31] , please.
Result string: 2.78

The measurements presented in this section are drawn from patent US20260027131A1.
